# protocol description: Critical micelle concentration by fluorescent staining with diphenylhexatriene (DPH)
# Format: physicochemical
# condition description: aqueous solution
quantity kind: CMC (wt %)

Which CMC (wt %) is listed for CCCCCCCCCCCCC(CCCC(CCCCCCCCCCCC)(CO[C@@H]1OC(CO)[C@@H](O)C(O)C1O)CO[C@@H]1OC(CO)[C@@H](O)C(O)C1O)(CO[C@@H]1OC(CO)[C@@H](O)C(O)C1O)CO[C@@H]1OC(CO)[C@@H](O)C(O)C1O (stereo partly drawn) ?
~0.0012 wt %

// CMC (wt %) lookup, key: CCCCCCCCCCCCO[C@@H]1O[C@H](CO)[C@@H](O[C@H]2O[C@H](CO)[C@@H](O)[C@H](O)[C@H]2O)[C@H](O)[C@H]1O [DDM, n-dodecyl-β-D-maltopyranoside, reference compound]
~0.0087 wt %

Tell me the measured CMC (wt %) of CC(C)CCC[C@@H](C)C1CCC2C3CC=C4CC(OCC(CO[C@@H]5OC(CO)[C@@H](O[C@H]6OC(CO)[C@@H](O)C(O)C6O)C(O)C5O)(CO[C@@H]5OC(CO)[C@@H](O[C@H]6OC(CO)[C@@H](O)C(O)C6O)C(O)C5O)CSCC(COC5CCC6(C)C(=CCC7C6CCC6(C)C7CCC6[C@H](C)CCCC(C)C)C5)(CO[C@@H]5OC(CO)[C@@H](O[C@H]6OC(CO)[C@@H](O)C(O)C6O)C(O)C5O)CO[C@@H]5OC(CO)[C@@H](O[C@H]6OC(CO)[C@@H](O)C(O)C6O)C(O)C5O)CCC4(C)C3CCC21C (stereo partly drawn) , please.
~0.00018 wt %

====

Field: Rh (nm), hydrodynamic radius of micelles. Provide a value for each of the molecules that follow.
# protocol description: Hydrodynamic radius of micelles by dynamic light scattering (DLS)
# Format: physicochemical
# condition description: micelles formed by each agent at 1.0 wt %
Put your answer as a value accompanied by its unit after it.

Suppose we examine the molecule CC(C)CCC[C@@H](C)C1CCC2C3CC=C4CC(OCC(CO[C@@H]5OC(CO)[C@@H](O[C@H]6OC(CO)[C@@H](O)C(O)C6O)C(O)C5O)(CO[C@@H]5OC(CO)[C@@H](O[C@H]6OC(CO)[C@@H](O)C(O)C6O)C(O)C5O)CSCC(COC5CCC6(C)C(=CCC7C6CCC6(C)C7CCC6[C@H](C)CCCC(C)C)C5)(CO[C@@H]5OC(CO)[C@@H](O[C@H]6OC(CO)[C@@H](O)C(O)C6O)C(O)C5O)CO[C@@H]5OC(CO)[C@@H](O[C@H]6OC(CO)[C@@H](O)C(O)C6O)C(O)C5O)CCC4(C)C3CCC21C (stereo partly drawn) [TMM-E27] ; what Rh (nm), hydrodynamic radius of micelles value has been reported?
4.7 ± 0.10 nm

Reported Rh (nm), hydrodynamic radius of micelles, molecule CCCCCCCCCCCCOCC(CO[C@@H]1OC(CO)[C@@H](O)C(O)C1O)(CO[C@@H]1OC(CO)[C@@H](O)C(O)C1O)CSCC(COCCCCCCCCCCCC)(CO[C@@H]1OC(CO)[C@@H](O)C(O)C1O)CO[C@@H]1OC(CO)[C@@H](O)C(O)C1O (stereo partly drawn) [TMG-T12] : ____
3.1 ± 0.06 nm

Value lookup for Rh (nm), hydrodynamic radius of micelles; key = CCCCCCCCCCCC(CCCC(CCCCCCCCCCC)(CO[C@@H]1OC(CO)[C@@H](O)C(O)C1O)CO[C@@H]1OC(CO)[C@@H](O)C(O)C1O)(CO[C@@H]1OC(CO)[C@@H](O)C(O)C1O)CO[C@@H]1OC(CO)[C@@H](O)C(O)C1O (stereo partly drawn) [TMG-A11]
3.1 ± 0.15 nm

====

# protocol description: Critical micelle concentration by fluorescent staining with diphenylhexatriene (DPH)
# Assay type: physicochemical
# condition description: aqueous solution
quantity kind: CMC

Need CMC of CC(C)CCC[C@@H](C)C1CCC2C3CC=C4CC(OCC(CO[C@@H]5OC(CO)[C@@H](O[C@H]6OC(CO)[C@@H](O)C(O)C6O)C(O)C5O)(CO[C@@H]5OC(CO)[C@@H](O[C@H]6OC(CO)[C@@H](O)C(O)C6O)C(O)C5O)CSCC(COC5CCC6(C)C(=CCC7C6CCC6(C)C7CCC6[C@H](C)CCCC(C)C)C5)(CO[C@@H]5OC(CO)[C@@H](O[C@H]6OC(CO)[C@@H](O)C(O)C6O)C(O)C5O)CO[C@@H]5OC(CO)[C@@H](O[C@H]6OC(CO)[C@@H](O)C(O)C6O)C(O)C5O)CCC4(C)C3CCC21C (stereo partly drawn) [TMM-E27] , thanks.
~0.008 mM

# CMC lookup, item CC1CCC2(OC1)OC1CC3C4CC=C5CC(OCC(CO[C@@H]6OC(CO)[C@@H](O[C@H]7OC(CO)[C@@H](O)C(O)C7O)C(O)C6O)(CO[C@@H]6OC(CO)[C@@H](O[C@H]7OC(CO)[C@@H](O)C(O)C7O)C(O)C6O)CSCC(COC6CCC7(C)C(=CCC8C7CCC7(C)C8CC8OC9(CCC(C)CO9)C(C)C87)C6)(CO[C@@H]6OC(CO)[C@@H](O[C@H]7OC(CO)[C@@H](O)C(O)C7O)C(O)C6O)CO[C@@H]6OC(CO)[C@@H](O[C@H]7OC(CO)[C@@H](O)C(O)C7O)C(O)C6O)CCC5(C)C4CCC3(C)C1C2C (stereo partly drawn) [TMM-D27]
~0.010 mM

# get_value(readout='CMC', item= CCCCCCCCCCCOCC(CO[C@@H]1OC(CO)[C@@H](O)C(O)C1O)(CO[C@@H]1OC(CO)[C@@H](O)C(O)C1O)CSCC(COCCCCCCCCCCC)(CO[C@@H]1OC(CO)[C@@H](O)C(O)C1O)CO[C@@H]1OC(CO)[C@@H](O)C(O)C1O (stereo partly drawn) [TMG-T11] )
~0.020 mM

Requested read-out: CMC. Entry: CCCCCCCCCCCCC(CCCC(CCCCCCCCCCCC)(CO[C@@H]1OC(CO)[C@@H](O)C(O)C1O)CO[C@@H]1OC(CO)[C@@H](O)C(O)C1O)(CO[C@@H]1OC(CO)[C@@H](O)C(O)C1O)CO[C@@H]1OC(CO)[C@@H](O)C(O)C1O (stereo partly drawn) [TMG-A12]
~0.010 mM

Need CMC, item CCCCCCCCCCCCC(CCCCCCCCCCCC)COCC(CO[C@@H]1OC(CO)[C@@H](O[C@H]2OC(CO)[C@@H](O)C(O)C2O)C(O)C1O)(CO[C@@H]1OC(CO)[C@@H](O[C@H]2OC(CO)[C@@H](O)C(O)C2O)C(O)C1O)CSCC(COCC(CCCCCCCCCCCC)CCCCCCCCCCCC)(CO[C@@H]1OC(CO)[C@@H](O[C@H]2OC(CO)[C@@H](O)C(O)C2O)C(O)C1O)CO[C@@H]1OC(CO)[C@@H](O[C@H]2OC(CO)[C@@H](O)C(O)C2O)C(O)C1O (stereo partly drawn) [TMM-C26]
~0.0015 mM

For the molecule CCCCCCCCCCCCCCOCC(CO[C@@H]1OC(CO)[C@@H](O)C(O)C1O)(CO[C@@H]1OC(CO)[C@@H](O)C(O)C1O)CSCC(COCCCCCCCCCCCCCC)(CO[C@@H]1OC(CO)[C@@H](O)C(O)C1O)CO[C@@H]1OC(CO)[C@@H](O)C(O)C1O (stereo partly drawn) [TMG-T14] , what CMC is on record?
~0.004 mM

Report CMC for CCCCCCCCCCCCO[C@@H]1O[C@H](CO)[C@@H](O[C@H]2O[C@H](CO)[C@@H](O)[C@H](O)[C@H]2O)[C@H](O)[C@H]1O [DDM, n-dodecyl-β-D-maltopyranoside, reference compound] please.
~0.17 mM

# input molecule: CC(C)CCC[C@@H](C)C1CCC2C3CCC4CC(OCC(CO[C@@H]5OC(CO)[C@@H](O[C@H]6OC(CO)[C@@H](O)C(O)C6O)C(O)C5O)(CO[C@@H]5OC(CO)[C@@H](O[C@H]6OC(CO)[C@@H](O)C(O)C6O)C(O)C5O)CSCC(COC5CCC6(C)C(CCC7C6CCC6(C)C7CCC6[C@H](C)CCCC(C)C)C5)(CO[C@@H]5OC(CO)[C@@H](O[C@H]6OC(CO)[C@@H](O)C(O)C6O)C(O)C5O)CO[C@@H]5OC(CO)[C@@H](O[C@H]6OC(CO)[C@@H](O)C(O)C6O)C(O)C5O)CCC4(C)C3CCC21C (stereo partly drawn) [TMM-A27] ; wanted: its CMC
~0.006 mM

Give its CMC value. Item: CCCCCCCCCCCCCOCC(CO[C@@H]1OC(CO)[C@@H](O)C(O)C1O)(CO[C@@H]1OC(CO)[C@@H](O)C(O)C1O)CSCC(COCCCCCCCCCCCCC)(CO[C@@H]1OC(CO)[C@@H](O)C(O)C1O)CO[C@@H]1OC(CO)[C@@H](O)C(O)C1O (stereo partly drawn) [TMG-T13]
~0.006 mM

Can you share its CMC? I mean this molecule: CCCCCCCCCCCC(CCCC(CCCCCCCCCCC)(CO[C@@H]1OC(CO)[C@@H](O)C(O)C1O)CO[C@@H]1OC(CO)[C@@H](O)C(O)C1O)(CO[C@@H]1OC(CO)[C@@H](O)C(O)C1O)CO[C@@H]1OC(CO)[C@@H](O)C(O)C1O (stereo partly drawn) [TMG-A11]
~0.015 mM

Which measured CMC value corresponds to CCCCCCCCCCCCCCC(CCCC(CCCCCCCCCCCCCC)(CO[C@@H]1OC(CO)[C@@H](O)C(O)C1O)CO[C@@H]1OC(CO)[C@@H](O)C(O)C1O)(CO[C@@H]1OC(CO)[C@@H](O)C(O)C1O)CO[C@@H]1OC(CO)[C@@H](O)C(O)C1O (stereo partly drawn) [TMG-A14] ?
~0.004 mM

// returns reported CMC for input CCCCCCCCCCCCOCC(CO[C@@H]1OC(CO)[C@@H](O)C(O)C1O)(CO[C@@H]1OC(CO)[C@@H](O)C(O)C1O)CSCC(COCCCCCCCCCCCC)(CO[C@@H]1OC(CO)[C@@H](O)C(O)C1O)CO[C@@H]1OC(CO)[C@@H](O)C(O)C1O (stereo partly drawn) [TMG-T12]
~0.015 mM
